system: TK-10 renal; assay: NCI-60 one-dose screen, 48 h; conditions: 10 µM unless noted
This is part of a sample that, as a whole, favours compounds with a hit. Of some 83,000 tested, about 20% had one in any assay. Active and inactive are the calls of the source. The calls were made as follows: active = growth percent below 10; inactive = the rest.
Please state which outcome applies, choosing from active, inactive

# molecule, assigned-label
rows = [
    ("CCCCOc1nc2ccc(C)cc2cc1/C=C/C(=O)/C=C(O)/C=C/c1cc2cc(C)ccc2nc1OCCCC", "inactive"),
]

## Task Please indicate how the test categorized COc1cc(C2CC(c3ccc(Cl)cc3)=NN2C=O)ccc1Oc1ccnc2cc(Cl)ccc12 (centres undefined) .
## Result inactive

## Task Another molecule to look at: "O=C1c2cccc3cccc(c23)C(=O)N1CCCCCCCCCCN1C(=O)c2cccc3cccc(c23)C1=O"
## Result inactive

## Task Another molecule to look at: "ClCc1c(Cl)c(Cl)c(Cl)c(CCl)c1Cl"
## Result active

## Task Another molecule to look at: "COc1ccc2c(c1)C1=NN(C(=O)CO)[C@H](c3ccc(OC(F)(F)F)cc3)[C@@H]1CC2"
## Result inactive

## Task Another molecule to look at: "CCCCCCCC/C=C\CCCCCCCC(=O)OCCCCCC"
## Result inactive

## Task Another molecule to look at: "CCN(CC)CCNC(=O)n1cc(-c2ccncc2)c(-c2ccc(Cl)c(OC)c2)n1"
## Result inactive

## Task Another molecule to look at: "NNC(=O)CSc1nc2scc(-c3ccccc3)c2c(=O)n1-c1ccccc1"
## Result inactive

## Task Another molecule to look at: "O=[N+]([O-])c1ccc(SSc2ccc([N+](=O)[O-])cc2Cl)c(Cl)c1"
## Result inactive

## Task Another molecule to look at: CCCCCCCCOC(=O)C(C)OC(=O)OCCOCCOC(=O)OC(C)C(=O)OCCCCCCCC (centres undefined)
## Result inactive

## Task Another molecule to look at: CC1=CCC2C1CC=C(C)C(CC[C@H]1[C@@](C)(O)CCC3OC(C)(C)[C@H](OC(=O)c4ccccc4)CC[C@@]31C)C2(C)C (some centres undefined)
## Result inactive

## Task Another molecule to look at: "Nc1c(Br)cc2c(c1Br)Cc1cc(Cl)ccc1-2"
## Result inactive

## Task Another molecule to look at: "c1ccc(CCn2cccc2)nc1"
## Result inactive

====

Tested on: MDA-MB-231 breast
Experiment: NCI-60 one-dose screen, 48 h (100 = growth as untreated, 0 = no growth, -100 = all killed)
Conditions: 10 µM unless noted
Protocol: Cells are grown in 96 well plates and exposed to the test compound for 48 hours. Compounds are tested at a single concentration, which is 10^-5 M for most compounds. The reported endpoint is percent growth (GI% or GIPRCNT), where numbers from 0 - 100% represent growth inhibition, and numbers from -100% - 0 represent cell death. For example, a value of 40 represents 60% growth inhibition. A value of 0 means no net growth occurred over the course of the experiment. […]
About 83,000 compounds went through this panel and 20% of them were active in at least one assay; those are over-represented in the sample as a whole.
property-measured: growth (%)
Only the number, expressed in %, is required.

// below: answered compounds
# compound, test-system, growth / %
records = [
    ("CC(=O)NC1C(O[C@H]2C[C@H]3[C@@H]4CC=C5C[C@@H](O)CC[C@]5(C)[C@H]4CC[C@]3(C)[C@H]2[C@H](C)C(=O)CCC(C)C)OCC(O)C1O (some centres not stated)", "MDA-MB-231 breast", 59.9),
    ("CC(C)CC1NC(=O)C(CC(C)C)N(CO)C1=O (configuration not stated)", "MDA-MB-231 breast", 97.1),
    ("Cn1c(=O)c2c(nc(N/N=C/c3ccccc3Cl)n2C)n(C)c1=O", "MDA-MB-231 breast", 100),
    ("Cc1cc2nc(CN)[nH]c2cc1C", "MDA-MB-231 breast", 117),
    ("CN1C(=O)N(C)C2C1NN=c1s/c(=C\\c3ccc(C(F)(F)F)cc3)c(=O)n12 (configuration not stated)", "MDA-MB-231 breast", 60.4),
]

## Task Field request: growth | item: COc1cc(NCCC2CCCCN2)c2ncccc2c1OC (configuration not stated)
## Result 74.2

## Task Another compound to look at: CCN1C(=O)N(CC)C2C1NN=c1s/c(=C\c3ccco3)c(=O)n12 (configuration not stated)
## Result 43

====

test system: UO-31 renal; experiment: NCI-60 one-dose screen, 48 h (100 = growth as untreated, 0 = no growth, -100 = all killed); settings: 10 µM unless noted
About 83,000 compounds went through this panel and 20% of them were active in at least one assay; those are over-represented in the sample as a whole.
property-measured: growth (%)
Only the number, expressed in %, is required.

// below: answered molecules
# molecule, result-unit, growth
data = [
    ("COc1ccc(-n2nc(C(=O)Nc3ccc(F)cc3)nc2-c2cc(OC)c(OC)c(OC)c2)cc1", "%", 51.6),
    ("Cc1cc2nc(CN)[nH]c2cc1C", "%", 101),
    ("O=C(c1ccccc1)C(CCc1ccccn1)CCc1ccccn1", "%", 75.1),
]

## Task Field request: growth | item: "O/N=C/c1ccncc1"
## Result 102

## Task Another molecule to look at: "C#CCO[C@H]1CC[C@H](OCC#C)[C@@H]2[C@H]1[C@H]1C[C@@H]3[C@@]4(C)CCC[C@@](C)(C(=O)OC)[C@@H]4CC[C@@]23C=C1C(C)C"
## Result 50.5

## Task Another molecule to look at: "CCCCOc1nc2ccccc2cc1/C=C/c1cc(/C=C/c2cc3ccccc3nc2OCCCC)n(-c2ccccc2)n1"
## Result 75.2

## Task Another molecule to look at: "Nc1c(C(=O)C[C@@H](N)CO)ccc2c1C(=O)CCO2"
## Result 45.5

## Task Another molecule to look at: "CCOC(=O)Cc1cc(Br)c(OCc2ccccc2)c(Br)c1"
## Result 80.5

## Task Another molecule to look at: "N=C(N)c1ccc(-c2ccc(-c3cccs3)s2)cc1F"
## Result -89.7

====

system: T-47D breast; experiment: NCI-60 one-dose screen, 48 h (100 = growth as untreated, 0 = no growth, -100 = all killed); settings: 10 µM unless noted
Compounds without any hit were thinned out: in the full panel of roughly 83,000, 20% have a hit.
Classification field: enter Y for growth values not below 80%, N for values below it.

Example cases with answers are listed next.
# compound, assigned-label
records = [
    ("O=C(CCCN1CCC(O)(c2ccc(Br)cc2)CC1)c1ccc(F)cc1", "N"),
    ("O=C(Nc1ccc(Br)cc1)Nc1cccc(Br)c1", "N"),
    ("CCCCCCCCOC(=O)C(C)OC(=O)OCCOCCOC(=O)OC(C)C(=O)OCCCCCCCC (stereo not drawn)", "Y"),
    ("c1cn2cc(-c3ccc4ncn(C5CCCCC5)c4c3)nc(-c3ccc4c(c3)ncn4C3CCCCC3)c2n1", "N"),
    ("NC(N)=NC1CCCCC1", "Y"),
]

## Task Assess whether reported growth for CN1C(=O)N(C)C2C1NN=c1s/c(=C\c3ccc(C(F)(F)F)cc3)c(=O)n12 (stereo not drawn) sits at 80% or higher.
## Result N

## Task Another compound to look at: COc1ccc(CC2c3cc(OC)c(OC)cc3CC[N+]2(C)CCC(=O)OCCCCCOC(=O)CC[N+]2(C)CCc3cc(OC)c(OC)cc3C2Cc2ccc(OC)c(OC)c2)cc1OC (stereo not drawn)
## Result Y

====

test system: RPMI-8226 leukemia; assay: NCI-60 one-dose screen, 48 h; details: 10 µM unless noted
Compounds without any hit were thinned out: in the full panel of roughly 83,000, 20% have a hit. Activity calls are given as the source filed them. The calls were made as follows: active = growth percent below 10; inactive = the rest.
Please state which outcome applies, choosing from 1 for active, 0 for inactive

Example cases with answers are listed next.
# compound, assigned-label
data = [
    ("CC(C)(C)[Si](C)(C)OC1[C@@H](O[Si](C)(C)C(C)(C)C)[C@@H](CNC(=O)NC(=O)NC(=O)CCl)O[C@H]1n1cnc2c(NC(=O)Nc3ccccc3)ncnc21 (stereo not given in full)", 0),
    ("Clc1ccc(C2=NN[C@H](c3cn(-c4ccccc4)nc3-c3ccccc3)C2)cc1", 0),
    ("CC(C)N(C(=S)SSC(=S)N(C(C)C)C(C)C)C(C)C", 0),
    ("NS(=O)(=O)c1ccc(CCn2c(SCC(=O)N/N=C/c3cc4ccccc4[nH]3)nc3ccccc3c2=O)cc1", 0),
    ("CC(=O)CC(c1ccc([N+](=O)[O-])cc1)c1c(O)c2ccccc2oc1=O (stereo not given)", 0),
]

## Task Please indicate how the test categorized "COc1ccc(-c2cc(C(=O)Nc3ccc(Br)cc3)nc3[nH]c(=O)sc23)cc1" .
## Result 0

## Task Another compound to look at: CCOC(=O)C1OC2(CCCC2)OC1C(=O)OCC (stereo not given)
## Result 0

## Task Another compound to look at: "Cc1ccc(NC(=O)c2cc(NCc3cc(O)ccc3O)ccc2O)cc1"
## Result 0

## Task Another compound to look at: CCN(CC)CCCC(C)Nc1ccnc2ccc(Oc3ccccc3)cc12 (stereo not given)
## Result 0
